Taken from ChEMBL document CHEMBL1165936.

molecular target: Receptor tyrosine-protein kinase erbB-2 (Homo sapiens, UniProt P04626); experiment: Inhibition of HER2 at 10 uM
Sequence (P04626 whole entry): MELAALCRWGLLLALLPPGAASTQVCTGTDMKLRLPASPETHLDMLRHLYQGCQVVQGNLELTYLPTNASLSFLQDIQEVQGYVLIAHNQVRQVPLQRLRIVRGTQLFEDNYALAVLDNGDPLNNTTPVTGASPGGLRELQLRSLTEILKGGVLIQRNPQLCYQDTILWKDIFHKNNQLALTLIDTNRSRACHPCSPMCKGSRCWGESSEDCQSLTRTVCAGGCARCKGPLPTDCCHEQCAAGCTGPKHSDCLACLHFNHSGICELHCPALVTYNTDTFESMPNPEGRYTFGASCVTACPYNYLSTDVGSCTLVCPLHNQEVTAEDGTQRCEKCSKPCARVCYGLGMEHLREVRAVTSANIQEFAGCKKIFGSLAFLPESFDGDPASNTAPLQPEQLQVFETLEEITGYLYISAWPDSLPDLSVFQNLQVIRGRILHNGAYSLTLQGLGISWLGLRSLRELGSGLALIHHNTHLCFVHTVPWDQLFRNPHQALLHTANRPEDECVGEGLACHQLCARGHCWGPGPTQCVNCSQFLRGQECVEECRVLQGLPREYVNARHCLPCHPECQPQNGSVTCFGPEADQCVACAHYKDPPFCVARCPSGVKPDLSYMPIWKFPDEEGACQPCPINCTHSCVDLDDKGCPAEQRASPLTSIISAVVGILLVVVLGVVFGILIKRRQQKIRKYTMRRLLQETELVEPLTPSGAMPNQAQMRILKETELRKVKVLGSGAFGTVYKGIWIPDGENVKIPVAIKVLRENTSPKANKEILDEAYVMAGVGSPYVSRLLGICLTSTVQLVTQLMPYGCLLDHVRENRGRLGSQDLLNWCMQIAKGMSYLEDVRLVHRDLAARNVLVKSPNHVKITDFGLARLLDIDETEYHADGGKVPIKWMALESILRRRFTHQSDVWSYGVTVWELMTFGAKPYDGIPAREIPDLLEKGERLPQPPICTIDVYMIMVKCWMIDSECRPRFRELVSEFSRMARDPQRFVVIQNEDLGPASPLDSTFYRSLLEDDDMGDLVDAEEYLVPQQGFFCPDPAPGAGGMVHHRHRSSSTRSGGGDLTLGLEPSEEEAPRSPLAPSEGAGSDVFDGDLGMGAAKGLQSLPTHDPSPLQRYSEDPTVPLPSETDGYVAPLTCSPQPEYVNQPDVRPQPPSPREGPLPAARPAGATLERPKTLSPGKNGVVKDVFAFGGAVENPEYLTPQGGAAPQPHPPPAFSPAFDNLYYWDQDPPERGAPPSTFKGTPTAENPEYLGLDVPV
Mark TRUE for reported inhibition of 70% or greater; mark FALSE for anything smaller.

These solved cases illustrate the format of a correct answer.
[Q] hey, is inhibition for this one >= 70%? `CCOC(=O)c1cc2cc(Nc3ncnc4cc(OCCCN(C)C)c(OC)cc34)ccc2s1`
[A] TRUE

[Q] Record: `CCOC(=O)c1cc2cc(Nc3ncnc4cc(OCCCN(CC)CC)c(OC)cc34)ccc2s1`
[A] TRUE

---
[Q] hey, is inhibition for this one >= 70%? `CCOC(=O)c1cc2cc(Nc3ncnc4cc(OCCCN5CCN(CC)CC5)c(OC)cc34)ccc2s1`
[A] TRUE

[Q] Record: CCOC(=O)c1cc2cc(Nc3ncnc4cc(OC)c(OCCCN5CCCCC5C)cc34)ccc2s1 (configuration not stated)
[A] FALSE
